# Test system: RAW-Dual
# Test: IRF Lucia reporter activity, fold change vs agonist alone; cytotoxicity flag (confluency mask): not cytotoxic; higher = enhanced IRF activity
# Measurement Conditions: agonist: LPS (TLR4) 0.1 ug/mL
Over roughly 2,900 compounds, “IRF Lucia reporter activity, fold change vs agonist alone” has its median near 0.9; the highest 2% begin near 2.8. What follows is part of a selection rich in the highest values, with near analogues and random picks from the rest.
Assignment: determine reported IRF Lucia reporter activity for the given molecules.
# print the numeric value only

Q: I'd like to know its IRF Lucia reporter activity. The molecule in question is Cc1cc(C#N)cc(C)c1Oc1nc(Nc2ccc(C#N)cc2)nc(N)c1Br (library stock concentration (final ~1000-fold dilution): 10 mM)
Ans: 2.87

Q: Same read-out for NC1=NC2(c3cc(NC(=O)c4ccc(F)cn4)ccc3F)COCC2CS1 (centres undefined) (library stock concentration (final ~1000-fold dilution): 10 mM) ?
Ans: 0.998

Q: Can you handle COC1CC2CCC(C)C(O)(O2)C(=O)C(=O)N2CCCCC2C(=O)OC(C(C)CC2CCC(OCCO)C(OC)C2)CC(=O)C(C)C=C(C)C(O)C(OC)C(=O)C(C)CC(C)C=CC=CC=C1C (centres undefined) (library stock concentration (final ~1000-fold dilution): 10 mM) next?
Ans: 2.63

Q: And for COC(=O)C1=C(C)NC(C)=C(C(=O)OC(C)(C)CN(C)CCC(c2ccccc2)c2ccccc2)C1c1cccc([N+](=O)[O-])c1 (centres undefined) (library stock concentration (final ~1000-fold dilution): 10 mM) ?
Ans: 1.96

Q: Now give it for N#Cc1ccc2[nH]c(O)c(-c3ccc(CN4CCOCC4)cn3)c2c1 (library stock concentration (final ~1000-fold dilution): 10 mM) too.
Ans: 0.903

Q: Moving on to the next molecule: CCOC(=O)CCNc1cc(N2CCc3ccccc3CC2)nc(-c2ccccn2)n1.Cl (library stock concentration (final ~1000-fold dilution): 10 mM)
Ans: 1.04

Q: For CS(=O)(=O)O.Cc1ccc(N(CC2=NCCN2)c2cccc(O)c2)cc1 (library stock concentration (final ~1000-fold dilution): 10 mM) then?
Ans: 0.89

Q: Next molecule up: COC(=O)C1=C(C)NC(C)=C(C(=O)OCCN(C)Cc2ccccc2)C1c1cccc([N+](=O)[O-])c1.Cl (centres undefined) (library stock concentration (final ~1000-fold dilution): 10 mM)
Ans: 1.4

Q: Param item: O=C(Nc1ccc([N+](=O)[O-])cc1Cl)c1cc(Cl)ccc1O (library stock concentration (final ~1000-fold dilution): 10 mM)
Ans: 2.53

Q: Follow-up entry: COC1CC2CCC(C)C(O)(O2)C(=O)C(=O)N2CCCCC2C(=O)OC(C(C)CC2CCC(n3cnnn3)C(OC)C2)CC(=O)C(C)C=C(C)C(O)C(OC)C(=O)C(C)CC(C)C=CC=CC=C1C (centres undefined) (library stock concentration (final ~1000-fold dilution): 10 mM)
Ans: 0.694

Q: Queued: COC1CC2CCC(C)C(O)(O2)C(=O)C(=O)N2CCCCC2C(=O)OC(C(C)CC2CCC(O)C(OC)C2)CC(=O)C(C)C=C(C)C(O)C(OC)C(=O)C(C)CC(C)C=CC=CC=C1C (centres undefined) (library stock concentration (final ~1000-fold dilution): .1 mM)
Ans: 0.698

Q: Please do the same for CC(O)CO.CCOc1ccc(Cc2cc(C3OC(CO)C(O)C(O)C3O)ccc2Cl)cc1.O (centres undefined) (library stock concentration (final ~1000-fold dilution): 10 mM) as well.
Ans: 1.03

Q: How about N#Cc1cccc(-c2c[nH]c3ncnc(N4CCOCC4)c23)c1 (library stock concentration (final ~1000-fold dilution): 10 mM) ?
Ans: 0.291

Q: Item: CCCc1nc(C)c2c(=O)[nH]c(-c3cc(S(=O)(=O)N4CCN(CC)CC4)ccc3OCC)nn12.Cl.O.O.O (library stock concentration (final ~1000-fold dilution): 10 mM)
Ans: 0.967

Q: Please do the same for N#Cc1ccc(-c2c(-c3ncn[nH]3)sc(N3CCOCC3)c2C#N)c(F)c1 (library stock concentration (final ~1000-fold dilution): 10 mM) as well.
Ans: 10.2

Q: For O=C(Nc1cc(C(F)(F)F)ccc1N1CCCCC1)c1ccncc1 (library stock concentration (final ~1000-fold dilution): 10 mM) then?
Ans: 0.874

Q: What would you report for Cc1cc(/C=C/C#N)cc(C)c1Nc1ccnc(Nc2ccc(C#N)cc2)n1 (library stock concentration (final ~1000-fold dilution): 10 mM) ?
Ans: 0.489

Q: Also COC1CC2CCC(C)C(O)(O2)C(=O)C(=O)N2CCCCC2C(=O)OC(C(C)CC2CCC(O)C(OC)C2)CC(=O)C(C)C=C(C)C(O)C(OC)C(=O)C(C)CC(C)C=CC=CC=C1C (centres undefined) (library stock concentration (final ~1000-fold dilution): 10 mM) ?
Ans: 2.09

Q: Check O=C(CCc1ccc(O)cc1)c1c(O)cccc1OC1OC(CO)C(O)C(O)C1O (centres undefined) (library stock concentration (final ~1000-fold dilution): 10 mM) too.
Ans: 0.918
